Measured values drawn from patent US20170306031A1 for this set.

MEASURED TARGET: T1, mouse GFRAL (analyte in Biacore assays) (mouse, UniProt Q6SJE0 20-349, limits assumed)
T1 construct: injected in solution over captured antibody
T1 sequence: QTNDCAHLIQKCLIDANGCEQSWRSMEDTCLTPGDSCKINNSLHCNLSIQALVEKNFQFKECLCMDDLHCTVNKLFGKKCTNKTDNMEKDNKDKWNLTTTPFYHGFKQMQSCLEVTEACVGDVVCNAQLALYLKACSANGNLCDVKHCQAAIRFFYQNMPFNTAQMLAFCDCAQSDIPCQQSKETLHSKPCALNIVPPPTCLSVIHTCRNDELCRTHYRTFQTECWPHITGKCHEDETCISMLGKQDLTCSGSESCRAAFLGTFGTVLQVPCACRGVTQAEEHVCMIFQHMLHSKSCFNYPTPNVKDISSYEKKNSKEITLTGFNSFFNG
PROTOCOL DETAILS: Biacore SPR, antibody captured, GFRAL injected
Kd values by entry
MEASURED PROPERTY: Kd

[[record]]
binder = "antibody designated 5F12 (antibody, V domains shown, mouse hybridoma monoclonal; also called 5F12 Hybridoma) VH: QVQLKQSGTELVRPGASVKLSCKASGYTFTDYYINWVKQRPGQGLEWIARIYPGNGNTYHNEKFKGKATLTAEKSSSTAYMQLSSLTSEDSAVYFCAREGLYYDYDRYFDYWGQGTALTVSS VL: NIVLTQSPASLAVSLGQRATISCRASESVDTYGNSFMHWYQQKPGQPPKLLIYLASNLESGVPARFSGSGSRTDFTLTIDPVEADDAATYYCHQNNEDPPAFGGGTKLEIK"
measured_property = "Kd"
experimental_result = "2.2 nM"

[[record]]
binder = "antibody designated 1B3 (antibody, V domains shown, mouse hybridoma monoclonal) VH: QVHLQQPGAELVKPGASVKLSCKASGFTFTGYNINWVRLRPEQGLEWIGWIFPGDDNAKYNEKFKGKATLTTDKSSNTAYMQLSRLTSEDSAVYFCARTPVLSNYFDYWGQGTTLTVSS VL: DIQMTQSPSSLSASLGGKVTITCKASQDISKYISWYQHKPGKSPRLLIHYTSTLQPGIPSRFSGSGSGRDYSFSISNLEPEDIATYYCLQYDNLYTFGGGTKLEIK"
measured_property = "Kd"
experimental_result = "4.4 nM"

[[record]]
binder = "antibody designated 2A9 (antibody, V domains shown, mouse hybridoma monoclonal) VH: EVKLVESGGGLVKPGGSLKLSCAASGFTFSTYAMSWVRQTPEKRLEWVASITSGGTTYYTDSVKGRFTISRDNARNILYLQMSSLRSEDTAMYYCARDGNFYYYGMDYWGQGTSVTVSS VL: DIVMTQSQKFMSTSVGDRVSITCKASQNVGTAVAWYQQKPGQSPKILIYSASNRFTGVPDRFTGSGSGTDFTLTISNMQSEDLADYFCQQYSSYFTFGGGTKLELK"
measured_property = "Kd"
experimental_result = "3.6 nM"

